Where these numbers come from: PubChem BioAssay AID1159580

Catalogue of molecules with associated normalized growth
- Assay protocol: chemical genetic growth profiling, strain panel (AID 1159580);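 also: tested at 20 µM; growth read once vehicle control cultures reached saturation at 30 °C; 1 = growth at the plate median or of vehicle wells; lower values mean less growth of the strain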
- Condition label: S. cerevisiae deletion strains, growth OD, locus YOL147C, strain pex11, hits give low values
Screen size: about 5,500 compounds; about 2,000 (36%) were called active. Not shown: some 18% with an inconclusive outcome. This is one part of the list.
Form: value (number only, do not type unit).

Observe how each entry below is paired with its result.
[
  {
    "Molecule": "COC(=O)CC1C2(C)CC34OC5(C)OC6(C7/C(=C(/O)C(C)C)C(=O)OC(c8ccoc8)C7(C)C(OC(=O)C(C)C)C(OC)C6(O5)C13C)C(OC)C4(OC)C2OC(C)=O (stereo not drawn)",
    "normalized growth": 0.984
  },
  {
    "Molecule": "CC[C@@H](C(=O)C(C)[C@@H](O)[C@H](C)CCc1ccc(C)c(O)c1C(=O)O)C1OC(CC)(C2CC[C@](O)(CC)[C@H](C)O2)C[C@@H]1C (stereo partly drawn)",
    "normalized growth": 1.02
  },
  {
    "Molecule": "CNC(=O)O/N=C(\\C)SC",
    "normalized growth": 0.976
  }
]

Look at this molecule and give its reported normalized growth. C[C@]12CCC(=O)C=C1C=CC1C2CC[C@@]2(C)C1CC[C@@]21CCC(=O)O1 (stereo partly drawn)
0.971

Look at this molecule and give its reported normalized growth. CCCCC[C@H]1C(=O)O[C@H](C)[C@H](NC(=O)c2cccc(NC=O)c2O)C(=O)O[C@@H](C)[C@@H]1OC(=O)CC(C)C
0.942

Look at this molecule and give its reported normalized growth. c1ccc2c(c1)CCCC2C1=NCCN1 (stereo not drawn)
0.989

Look at this molecule and give its reported normalized growth. COc1cc2nc(N(C)CCCNC(=O)C3CCCO3)nc(N)c2cc1OC (stereo not drawn)
1.01

Look at this molecule and give its reported normalized growth. C/C=C(\C)C(=O)O[C@H]1C[C@@H](OC(C)=O)[C@@]2(C(=O)OC)CO[C@@H]3C2[C@]12CO[C@](O)(C(=O)OC)[C@H]2[C@](C)(C12O[C@@]1(C)[C@H]1C[C@@H]2OC2OC=C[C@@]21O)[C@@H]3O (stereo partly drawn)
0.981

Look at this molecule and give its reported normalized growth. CCC(C)C(=O)O[C@@H]1C[C@@]2(C)[C@H](c3ccoc3)OC(=O)CC23OC2(C)O[C@]14[C@]1(C)[C@@H](CC(=O)OC)C5(C)CC1(O)[C@](O)(C5OC(=O)C1(C)OC1C)[C@@H](OC(C)=O)[C@]34O2 (stereo partly drawn)
1.02

Look at this molecule and give its reported normalized growth. COC(=O)/C=C/C(C)=C/C=C/C(C)=C/C=C/C=C(C)/C=C/C=C(C)/C=C/C(=O)O
0.996

Look at this molecule and give its reported normalized growth. CC(C)NCC(O)COc1cccc2[nH]ccc12 (stereo not drawn)
0.992

Look at this molecule and give its reported normalized growth. CCCCCCCCCCC[C@@H](C[C@H]1OC(=O)[C@H]1CCCCCC)OC(=O)[C@@H](CC(C)C)NC=O
1.02

Look at this molecule and give its reported normalized growth. Clc1ccc(C(c2ccc(Cl)cc2)C(Cl)(Cl)Cl)cc1
1

----------
- Assay protocol: chemical genetic growth profiling, strain panel (AID 1159580);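 also: tested at 20 µM; growth read once vehicle control cultures reached saturation at 30 °C; 1 = growth at the plate median or of vehicle wells; lower values mean less growth of the strain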
- Condition label: S. cerevisiae deletion strains, growth OD, locus YCL011C, strain gbp2, hits give low values
The campaign covered roughly 5,500 compounds. About 2,000 (36%) were called active. Roughly 18% stayed inconclusive and do not appear here. This is one part of the list.
Property name: normalized growth

Observe how each entry below is paired with its result.
[
  {
    "Molecule": "O=C(Oc1cc(OC(=O)c2ccccc2)c2c(c1)O[C@H](c1ccc(OC(=O)c3ccccc3)c(OC(=O)c3ccccc3)c1)[C@@H](OC(=O)c1ccccc1)C2)c1ccccc1",
    "normalized growth": "0.987 (inactive)"
  },
  {
    "Molecule": "COc1cc(CNC(=O)CCCC/C=C/C(C)C)ccc1O",
    "normalized growth": "0.979 (inactive)"
  },
  {
    "Molecule": "COc1cc([C@@H]2c3cc4c(cc3[C@@H](O)C3COC(=O)C32)OCO4)cc(OC)c1O (some centres undefined)",
    "normalized growth": "0.988 (inactive)"
  }
]

Look at this molecule and give its reported normalized growth. OCC(O)CN1CCN(c2ccccc2)CC1 (centres undefined)
0.977 (inactive)

Look at this molecule and give its reported normalized growth. COc1ccc(C(=O)CC(=O)O)c2c1C=CC(C)(C)O2
1.01 (inactive)

Look at this molecule and give its reported normalized growth. COC(=O)C[C@H]1C2(C)CC34OC5(C)O[C@@]6([C@H](OC(C)=O)C(OC(C)=O)[C@]7(C)C(/C(=C(/O)C(C)C)C(=O)O[C@H]7c7ccoc7)[C@@]6(O5)[C@H](OC(C)=O)[C@@]3(O)C2OC(=O)C(C)C)[C@]14C (some centres undefined)
0.989 (inactive)

Look at this molecule and give its reported normalized growth. CC(=O)Oc1cc(OC(C)=O)c2c(c1)O[C@H](c1ccc(OC(C)=O)c(OC(C)=O)c1)[C@H](OC(C)=O)C2
0.982 (inactive)

Look at this molecule and give its reported normalized growth. COc1ccc(C2CNC(=O)C2)cc1OC1CCCC1 (centres undefined)
1.01 (inactive)

Look at this molecule and give its reported normalized growth. CC(=O)O[C@H]1C[C@@H](OC(C)=O)C(C)(C)C2CC(=O)[C@]3(C)C(CC[C@@]4(C)[C@H](C(=O)O)OC(=O)C5OC543)[C@]21C (some centres undefined)
0.982 (inactive)

Look at this molecule and give its reported normalized growth. CC(C)NCC(O)COc1cccc2[nH]ccc12 (centres undefined)
0.98 (inactive)

Look at this molecule and give its reported normalized growth. COc1ccc(C(CN(C)C)C2(O)CCCCC2)cc1 (centres undefined)
0.994 (inactive)

Look at this molecule and give its reported normalized growth. CC(=O)Oc1cc(OC(C)=O)c2c(c1)O[C@H](c1ccc(OC(C)=O)c(OC(C)=O)c1)[C@@H](OC(C)=O)C2
1 (inactive)

Look at this molecule and give its reported normalized growth. O=C(O[C@@H]1Cc2c(O)cc(O)cc2O[C@@H]1c1ccc(O)c(O)c1)c1cc(O)c(O)c(O)c1
0.961 (inactive)

----------
- Assay protocol: chemical genetic growth profiling, strain panel (AID 1159580);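 also: tested at 20 µM; growth read once vehicle control cultures reached saturation at 30 °C; 1 = growth at the plate median or of vehicle wells; lower values mean less growth of the strain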
- Condition label: S. cerevisiae deletion strains, growth OD, locus YKL085W, strain MDH1 (second series), hits give low values
Screen size: about 5,500 compounds; about 2,000 (36%) were called active. Inconclusive results (about 18%) are left out. This is one part of the list.
Property name: normalized growth
Form: value (number only, do not type unit).

[
  {
    "Compound": "O=C1c2ccc(O)cc2O[C@H](c2cc(O)c(O)c(O)c2)[C@H]1O",
    "normalized growth": 1.01
  },
  {
    "Compound": "Oc1ccc2c(c1)O[C@H](c1ccc(O)c(O)c1)[C@@H](O)C2",
    "normalized growth": 1.01
  },
  {
    "Compound": "CN1C2CCC1CC(OC(c1ccccc1)c1ccccc1)C2 (stereo not given)",
    "normalized growth": 0.978
  },
  {
    "Compound": "CCCCCCCCC(=O)NCc1ccc(O)c(OC)c1",
    "normalized growth": 0.987
  },
  {
    "Compound": "CC(=O)S[C@@H]1CC2=CC(=O)CC[C@]2(C)[C@H]2CC[C@@]3(C)[C@@H](CC[C@@]34CCC(=O)O4)C12 (stereo not given in full)",
    "normalized growth": 1.01
  }
]

Look at this compound and give its reported normalized growth. Cn1c(=O)c2c(ncn2CC(O)CO)n(C)c1=O (stereo not given)
1.01

Look at this compound and give its reported normalized growth. Oc1cc(O)c2c(c1)O[C@H](c1cc(O)c(O)c(O)c1)[C@H](O)C2
1

Look at this compound and give its reported normalized growth. C[C@]12CCC(=O)C=C1C=CC1C2CC[C@@]2(C)C1CC[C@@]2(O)CCC(=O)O (stereo not given in full)
0.993

Look at this compound and give its reported normalized growth. Oc1cc(O)c2c(c1)O[C@H](c1ccc(O)c(O)c1)[C@H](O)C2
0.981

Look at this compound and give its reported normalized growth. COC(=O)CC1C2(C)CC34OC5(C)OC6(C7/C(=C(/O)C(C)C)C(=O)OC(c8ccoc8)C7(C)C(OC(=O)C(C)C)C(OC)C6(O5)C13C)C(OC)C4(OC)C2OC(C)=O (stereo not given)
1

----------
Catalogue of compounds with associated normalized growth
- Assay protocol: chemical genetic growth profiling, strain panel (AID 1159580);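 also: tested at 20 µM; growth read once vehicle control cultures reached saturation at 30 °C; 1 = growth at the plate median or of vehicle wells; lower values mean less growth of the strain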
- Condition label: S. cerevisiae deletion strains, growth OD, locus YOR290C, strain snf2, hits give low values
Screen size: about 5,500 compounds; about 2,000 (36%) were called active. Another 18% or so got no clear call; they are omitted. The list shows a part of the results.
Form: value (number only, do not type unit).

Observe how each entry below is paired with its result.
[
  {
    "Compound": "CCCCC/C=C/CCC(=O)N[C@H]1[C@H](Oc2c3cc4cc2Oc2ccc(cc2Cl)[C@@H](O[C@@H]2O[C@H](CO)[C@@H](O)[C@H](O)[C@H]2NC(C)=O)[C@@H]2NC(=O)[C@H](NC(=O)[C@@H]4NC(=O)[C@H]4NC(=O)C(Cc5ccc(c(Cl)c5)O3)NC(=O)[C@H](N)c3ccc(O)c(c3)Oc3cc(O)cc4c3)c3ccc(O)c(c3)-c3c(OC4O[C@H](CO)[C@@H](O)[C@H](O)[C@@H]4O)cc(O)cc3[C@@H](C(=O)O)NC2=O)O[C@H](CO)[C@@H](O)[C@@H]1O (stereo partly specified)",
    "normalized growth": 1.01
  },
  {
    "Compound": "COC(=O)C[C@H]1C2(C)CC34OC5(C)O[C@@]6([C@H](OC)C(OC(=O)C(C)C)[C@]7(C)C(/C(=C(/OC)C(C)C)C(=O)O[C@H]7c7ccoc7)[C@@]6(O5)[C@H](OC)[C@@]3(OC)C2OC(C)=O)[C@]14C (stereo partly specified)",
    "normalized growth": 0.962
  },
  {
    "Compound": "Nc1ncn[nH]1",
    "normalized growth": 0.982
  },
  {
    "Compound": "COc1ccc(C(CN(C)C)C2(O)CCCCC2)cc1 (stereo unspecified)",
    "normalized growth": 0.974
  },
  {
    "Compound": "COc1ccc(-c2coc3cc(O)ccc3c2=O)c(OC)c1",
    "normalized growth": 1.02
  },
  {
    "Compound": "CCCCCCCCCCC[C@@H](C[C@H]1OC(=O)[C@H]1CCCCCC)OC(=O)[C@@H](CC(C)C)NC=O",
    "normalized growth": 1.05
  },
  {
    "Compound": "CCC(C)C(=O)O[C@@H]1C[C@@]2(C)[C@H](c3ccoc3)OC(=O)CC23OC2(C)OC34[C@H](OC(=O)C(C)C)[C@@]3(O)[C@@H](OC(=O)C5(C)OC5C)[C@@]5(C)C[C@]3(O)[C@@](C)([C@H]5CC(=O)OC)C14O2 (stereo partly specified)",
    "normalized growth": 1
  },
  {
    "Compound": "Nc1nc(=S)c2[nH]cnc2[nH]1",
    "normalized growth": 0.942
  },
  {
    "Compound": "CCC(C)C(=O)O[C@@H]1C[C@@]2(C)[C@H](c3ccoc3)OC(=O)CC23OC2(C)O[C@]14[C@]1(C)[C@@H](CC(=O)OC)C5(C)CC1(O)[C@](O)(C5OC(=O)C1(C)OC1C)[C@@H](OC(C)=O)[C@]34O2 (stereo partly specified)",
    "normalized growth": 1
  },
  {
    "Compound": "CCCCCCCCCCCCCc1ccco1",
    "normalized growth": 0.913
  }
]

Look at this compound and give its reported normalized growth. C=CCCCCCCCCCCCc1ccco1
0.909
